- System: Malme-3M
- experiment: Antiproliferative activity against human MALME-3M cells
- Format: functional, cell-based
Here, each record is paired with measured IC50 data.
value.type: IC50 (µg/mL)

molecule: CC(=O)O[C@@H](CC=C(C)C)/C(C)=C/C=C/C(C)=C1\C(=O)C[C@H]2[C@@]3(C)CC[C@@H](O)[C@](C)(CO)[C@@H]3CC[C@]12C (mixture of isomers)
recorded.measurement: 0.23
//
molecule: CC(=O)O[C@H]1CC[C@@]2(C)[C@@H](CC[C@]3(C)/C(=C(C)/C=C/C=C(\C)[C@@H](O)CC=C(C)C)C(=O)C[C@@H]23)[C@@]1(C)CO (mixture of isomers)
recorded.measurement: 0.11
//
molecule: CC(=O)O[C@@H](CC=C(C)C)/C(C)=C/C=C/C(C)=C1\C(=O)C[C@H]2[C@@]3(C)CC[C@H](OC(C)=O)[C@](C)(CO)[C@@H]3CC[C@]12C (mixture of isomers)
recorded.measurement: 2.27
//
molecule: CC(=O)O[C@@H](CC=C(C)C)/C(C)=C/C=C/C(C)=C1\C(=O)C[C@H]2[C@@]3(C)CC[C@@H](OC(C)=O)[C@](C)(CO)[C@@H]3CC[C@]12C (mixture of isomers)
recorded.measurement: 1.2
